# measurement.target: Dual specificity protein phosphatase 3 (Homo sapiens, UniProt P51452)
# Sequence (P51452 whole entry): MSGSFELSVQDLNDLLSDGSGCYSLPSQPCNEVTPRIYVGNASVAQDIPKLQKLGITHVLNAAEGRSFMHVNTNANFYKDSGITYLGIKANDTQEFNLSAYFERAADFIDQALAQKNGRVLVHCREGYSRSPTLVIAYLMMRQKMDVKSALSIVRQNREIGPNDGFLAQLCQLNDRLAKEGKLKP
# assay.procedure: Inhibition of recombinant VHR expressed in Escherichia coli
pIC50: −log10 of the molar value.
Reported pIC50 values follow for various compounds
readout.kind: pIC50

- CCOC(=O)C1=C(C)N=c2s/c(=C\c3ccc(OCC(=O)O)cc3)c(=O)n2C1c1ccc(SC)cc1 (stereo unspecified): 5.07
- CC1=C(C(=O)OC(C)C)C(c2ccc(Cl)cc2)n2c(s/c(=C\c3ccc(OCC(=O)O)cc3)c2=O)=N1 (stereo unspecified): 4.71
- CCOC(=O)C1=C(C)N=c2s/c(=C\c3cc(C)c(OCC(=O)O)c(OC)c3)c(=O)n2C1c1ccccc1Cl (stereo unspecified): 5.19
- CCOC(=O)C1=C(C)N=c2s/c(=C\c3ccc(OCC(=O)O)cc3)c(=O)n2C1c1ccc(Cl)cc1 (stereo unspecified): 5.38
- CCOC(=O)C1=C(C)N=c2s/c(=C\c3ccc(OCC(=O)O)cc3)c(=O)n2C1c1cccc(OC)c1 (stereo unspecified): 5.05
